Data credit: patent US6914045B2

Entries and their MIC Streptococcus pyogenes (GC 4563) values follow.
Test system: Streptococcus sp.
PROTOCOL_TEXT: in vitro antibacterial evaluation, MIC by broth dilution
Assay type: cell-based
TEST_CONTEXT: broth dilution, 18 hours at 35° C.
Excerpt: Methods for in vitro Antibacterial Evaluation (Table 1) […]
MEASURED_QUANTITY: MIC Streptococcus pyogenes (GC 4563) (µg/mL)

>>> recorded_result("COc1ccc2cc(COCC3OC(OC4C(CO)OC(Oc5ccc(CC6NC(=O)C(C(C)c7ccccc7)NC(=O)CNC(=O)C(CO)NC(=O)C(CC7CNC(=N)N7C7OC(CO)C(O)C(O)C7O)NC(=O)C(CC7CNC(=N)N7)NC6=O)cc5)C(O)C4O)C(O)C(O)C3O)ccc2c1 (centres unmarked)")
4
>>> recorded_result("CC(C)=CCCC(C)=CCCC(C)=CCOc1cccc(C2OCC3OC(OC4C(CO)OC(Oc5ccc(CC6NC(=O)C(C(C)c7ccccc7)NC(=O)CNC(=O)C(CO)NC(=O)C(C(O)C7CNC(=N)N7C7OC(CO)C(O)C(O)C7O)NC(=O)C(C(O)C7CNC(=N)N7)NC6=O)cc5)C(O)C4O)C(O)C(O)C3O2)c1 (centres unmarked)")
16
>>> recorded_result("Cc1ccc(Oc2cccc(C3OCC4OC(OC5C(CO)OC(Oc6ccc(CC7NC(=O)C(C(C)c8ccccc8)NC(=O)CNC(=O)C(CO)NC(=O)C(C(O)C8CNC(=N)N8C8OC(CO)C(O)C(O)C8O)NC(=O)C(C(O)C8CNC(=N)N8)NC7=O)cc6I)C(O)C5O)C(O)C(O)C4O3)c2)cc1 (centres unmarked)")
16
>>> recorded_result("CC(c1ccccc1)C1NC(=O)CNC(=O)C(CO[Si](C)(C)C(C)(C)C)NC(=O)C(C(O)C2CNC(=N)N2C2OC3COC(C)(C)OC3C3OC(C)(C)OC32)NC(=O)C(C(O)C2CNC(=N)N2)NC(=O)C(Cc2ccc(O)cc2)NC1=O (centres unmarked)")
32
>>> recorded_result("COc1ccc(COCC2OC(OC3C(CO)OC(Oc4ccc(CC5NC(=O)C(C(C)c6ccccc6)NC(=O)CNC(=O)C(CO)NC(=O)C(C(O)C6CNC(=N)N6C6OC(CO)C(O)C(O)C6O)NC(=O)C(C(O)C6CNC(=N)N6)NC5=O)cc4)C(O)C3O)C(O)C(O)C2O)cc1 (centres unmarked)")
2
>>> recorded_result("CC(c1ccccc1)C1NC(=O)CNC(=O)C(CO)NC(=O)C(C(O)C2CNC(=N)N2C2OC(CO)C(O)C(O)C2O)NC(=O)C(C(O)C2CNC(=N)N2)NC(=O)C(Cc2ccc(OC3OC(CO)C(OC4OC(CO)C(O)C5OC6(CCCCCCCCCCCC6)OC45)C(O)C3O)cc2)NC1=O (centres unmarked) [Example 210a]")
1
>>> recorded_result("CC(c1ccccc1)C1NC(=O)CNC(=O)C(CO)NC(=O)C(C(O)C2CNC(=N)N2C2OC(CO)C(O)C(O)C2O)NC(=O)C(C(O)C2CNC(=N)N2)NC(=O)C(Cc2ccc(OC3OC(CO)C(OC4OC(COC(=O)NCc5ccccc5)C(O)C(O)C4O)C(O)C3O)cc2)NC1=O (centres unmarked) [Example 257b]")
0.12

---

Entries and their MIC Enterococcus faecalis (ATCC 29212) values follow.
Test system: Enterococcus sp.
PROTOCOL_TEXT: in vitro antibacterial evaluation, MIC by broth dilution
Format: cell-based
TEST_CONTEXT: Enterococcus faecalis (ATCC 29212); broth dilution, 18 hours at 35° C.
MEASURED_QUANTITY: MIC Enterococcus faecalis (ATCC 29212) (µg/mL)

>>> recorded_result("CC(c1ccccc1)C1NC(=O)CNC(=O)C(CO)NC(=O)C(CC2CN(Cc3ccccc3)C(=N)N2C2OC(CO)C(O)C(O)C2O)NC(=O)C(CC2CNC(=N)N2)NC(=O)C(Cc2ccc(OC3OC(CO)C(OC4OC5COC6(OC5C(O)C4O)C4CC5CC(C4)CC6C5)C(O)C3O)cc2)NC1=O (stereo not shown) [Example 80]")
64
>>> recorded_result("CC(c1ccccc1)C1NC(=O)CNC(=O)C(CO)NC(=O)C(C(O)C2CNC(=N)N2C2OC(CO)C(O)C(O)C2O)NC(=O)C(C(O)C2CNC(=N)N2)NC(=O)C(Cc2ccc(OC3OC(CO)C(OC4OC(COC(=O)NCc5ccccc5)C(O)C(O)C4O)C(O)C3O)cc2)NC1=O (stereo not shown) [Example 257b]")
0.5
>>> recorded_result("CSc1ccc(C2OCC3OC(OC4C(CO)OC(Oc5ccc(CC6NC(=O)C(C(C)c7ccccc7)NC(=O)CNC(=O)C(CO)NC(=O)C(C(O)C7CNC(=N)N7C7OC(CO)C(O)C(O)C7O)NC(=O)C(C(O)C7CNC(=N)N7)NC6=O)cc5)C(O)C4O)C(O)C(O)C3O2)cc1 (stereo not shown) [Example 144]")
2
>>> recorded_result("CCCCCC(=O)OCC1OC(OC2C(CO)OC(Oc3ccc(CC4NC(=O)C(C(C)c5ccccc5)NC(=O)CNC(=O)C(CO)NC(=O)C(C(O)C5CNC(=N)N5C5OC(CO)C(O)C(O)C5O)NC(=O)C(C(O)C5CNC(=N)N5)NC4=O)cc3)C(O)C2O)C(O)C(O)C1O (stereo not shown) [Example 95b]")
4

---

Entries and their MIC Streptococcus pyogenes (GC 4563) values follow.
Test system: Streptococcus sp.
PROTOCOL_TEXT: in vitro antibacterial evaluation, MIC by broth dilution
Assay type: cell-based
TEST_CONTEXT: broth dilution, 18 hours at 35° C.; strain GC 4563
MEASURED_QUANTITY: MIC Streptococcus pyogenes (GC 4563) (µg/mL)

>>> recorded_result("COc1ccc(CC2OCC3OC(OC4C(CO)OC(Oc5ccc(CC6NC(=O)C(C(C)c7ccccc7)NC(=O)CNC(=O)C(CO)NC(=O)C(C(O)C7CNC(=N)N7C7OC(CO)C(O)C(O)C7O)NC(=O)C(C(O)C7CNC(=N)N7)NC6=O)cc5)C(O)C4O)C(O)C(O)C3O2)cc1 (stereo not drawn)")
0.25
>>> recorded_result("CC(C)=CCCC(C)C1OCC2OC(OC3C(CO)OC(Oc4ccc(CC5NC(=O)C(C(C)c6ccccc6)NC(=O)CNC(=O)C(CO)NC(=O)C(C(O)C6CNC(=N)N6C6OC(CO)C(O)C(O)C6O)NC(=O)C(C(O)C6CNC(=N)N6)NC5=O)cc4)C(O)C3O)C(O)C(O)C2O1 (stereo not drawn)")
0.5
>>> recorded_result("CC(c1ccccc1)C1NC(=O)CNC(=O)C(CO)NC(=O)C(C(O)C2CN(CCCCCCCCCCCCO)C(=N)N2C2OC(CO)C(O)C(O)C2O)NC(=O)C(C(O)C2CNC(=N)N2)NC(=O)C(Cc2ccc(OC3OC(CO)C(OC4OC(CO)C(O)C(O)C4O)C(O)C3O)cc2)NC1=O (stereo not drawn)")
128
>>> recorded_result("COC1CCC2(C)C(CCC3C2CCC2(C)C(C(C)CCC4OCC5OC(OC6C(CO)OC(Oc7ccc(CC8NC(=O)C(C(C)c9ccccc9)NC(=O)CNC(=O)C(CO)NC(=O)C(C(O)C9CNC(=N)N9C9OC(CO)C(O)C(O)C9O)NC(=O)C(C(O)C9CNC(=N)N9)NC8=O)cc7)C(O)C6O)C(O)C(O)C5O4)CCC32)C1 (stereo not drawn)")
16

---

Entries and their MIC Escherichia coli (GC 4559) values follow.
Tested on: Escherichia coli
PROTOCOL_TEXT: in vitro antibacterial evaluation, MIC by broth dilution
Type: cell-based
TEST_CONTEXT: Escherichia coli (GC 4559), 18 hours at 35° C.
Numbered stars: 1 amine (or outer) side, 2 acyl side, 3 side chain; on linkers, the order of the positions; unused ones are H or OH. Square brackets hold non-standard residues; d marks the D form. Peptide text beside a SMILES is read from it. * marks the point of attachment. ξ: configuration not given here. X1 = N=C1NCC(C(O)C(N[*:1])C(=O)[*:2])N1C1OC(CO)C(O)C(O)C1O; ξEnduracididine(βξ-OH,4'ξ) = N=C1NCC(C(O)C(N)C(=O)O)N1; ξPhe(4-Cl,βξ-Me) = CC(c1ccc(Cl)cc1)C(N)C(=O)O; X2 = OCC1OC(OC2C(CO)OC(*)C(O)C2O)C(O)C(O)C1O
MEASURED_QUANTITY: MIC Escherichia coli (GC 4559)

>>> recorded_result("N=C1NCC(C(O)C2NC(=O)C(Cc3ccc(O)cc3)NC(=O)C(Cc3ccccc3)NC(=O)CNC(=O)C(CO)NC(=O)C(C(O)C3CNC(=N)N3C3OC(CO)C(O)C(O)C3O)NC2=O)N1 (stereo not drawn) [Example 279a] (cyclo(GFY[ξEnduracididine(βξ-OH,4'ξ)][X1]S); configuration not given here)")
"64 µg/mL"
>>> recorded_result("N=C1NCC(C(O)C2NC(=O)C(Cc3ccc(OC4OC(CO)C(OC5OC(CO)C(O)C(O)C5O)C(O)C4O)cc3)NC(=O)C(Cc3ccccc3)NC(=O)CNC(=O)C(CO)NC(=O)C(C(O)C3CNC(=N)N3C3OC(CO)C(O)C(O)C3O)NC2=O)N1 (stereo not drawn) [Example 282] (cyclo(GFY(X2)[ξEnduracididine(βξ-OH,4'ξ)][X1]S); configuration not given here)")
">128 µg/mL"
>>> recorded_result("CC(c1ccc(Cl)cc1)C1NC(=O)CNC(=O)C(CO)NC(=O)C(C(O)C2CNC(=N)N2C2OC(CO)C(O)C(O)C2O)NC(=O)C(C(O)C2CNC(=N)N2)NC(=O)C(Cc2ccc(OC3OC(CO)C(OC4OC(CO)C(O)C(O)C4O)C(O)C3O)cc2)NC1=O (stereo not drawn) [Example 262a] (cyclo(G[ξPhe(4-Cl,βξ-Me)]Y(X2)[ξEnduracididine(βξ-OH,4'ξ)][X1]S); configuration not given here)")
">128 µg/mL"
>>> recorded_result("CC(C)CC(=O)OC1C(OC2C(CO)OC(Oc3ccc(CC4NC(=O)C(C(C)c5ccc(F)cc5)NC(=O)CNC(=O)C(CO)NC(=O)C(C(O)C5CNC(=N)N5C5OC(CO)C(O)C(O)C5O)NC(=O)C(C(O)C5CNC(=N)N5)NC4=O)cc3)C(O)C2O)OC(CO)C(O)C1O (centres unmarked) [Example 261b]")
">64 µg/mL"
>>> recorded_result("CC=C(C)C(=O)OC1C(CO)OC(OC2C(CO)OC(Oc3ccc(CC4NC(=O)C(C(C)c5ccccc5)NC(=O)CNC(=O)C(CO)NC(=O)C(C(O)C5CNC(=N)N5C5OC(CO)C(O)C(O)C5O)NC(=O)C(C(O)C5CNC(=N)N5)NC4=O)cc3)C(O)C2O)C(O)C1O (centres unmarked) [Example 278b]")
">64 µg/mL"
>>> recorded_result("CC(C)CC(=O)OC1C(OC2C(CO)OC(Oc3ccc(CC4NC(=O)C(C(C)c5ccccc5)NC(=O)CNC(=O)C(CO)NC(=O)C(CC5CNC(=N)N5C5OC(CO)C(O)C(O)C5O)NC(=O)C(CC5CNC(=N)N5)NC4=O)cc3)C(O)C2O)OC(CO)C(O)C1O (centres unmarked) [Example 277b]")
">64 µg/mL"
>>> recorded_result("CC(C)C(=O)OCC1OC(OC2C(CO)OC(Oc3ccc(CC4NC(=O)C(Cc5ccccc5)NC(=O)CNC(=O)C(CO)NC(=O)C(C(O)C5CNC(=N)N5C5OC(CO)C(O)C(O)C5O)NC(=O)C(C(O)C5CNC(=N)N5)NC4=O)cc3)C(O)C2O)C(O)C(O)C1O (centres unmarked) [Example 283a]")
">128 µg/mL"
>>> recorded_result("CC(C)CC(=O)OC1C(O)C(CO)OC(OC2C(CO)OC(Oc3ccc(CC4NC(=O)C(C(C)c5cccs5)NC(=O)CNC(=O)C(CO)NC(=O)C(C(O)C5CNC(=N)N5C5OC(CO)C(O)C(O)C5O)NC(=O)C(C(O)C5CNC(=N)N5)NC4=O)cc3)C(O)C2O)C1O (centres unmarked) [Example 265b]")
"64 µg/mL"
